Target: OX1 (Homo sapiens)
Construct: expressed in transfected cells; host or cells: CHO (CHO-OX1, kept under G418 or Blasticidin selection)
Assay: Orexin receptor cell-based functional assay: [Ca2+]i by FLIPR in CHO-OX1 cells, antagonism of EC90 of OXA
Details: Table 2, IC50 bioactivity; CHO-OX1 cells, FLIPR; read-out: OX1
quantity measured: IC50 (nM)
Numbers only, in nM.

API: value(readout= IC50, system= OX1 (Homo sapiens), query= CC(=O)NC1CCC(CNC(=O)c2cccc3cccnc23)N(C(=O)c2ccccc2-c2ccccc2)C1 (racemic) [Example 43] ) 2000

###

Target: OX1 (Homo sapiens, UniProt O43613)
Construct: expressed in transfected cells; host or cells: CHO (CHO-OX1, kept under G418 or Blasticidin selection)
Sequence (O43613 whole entry): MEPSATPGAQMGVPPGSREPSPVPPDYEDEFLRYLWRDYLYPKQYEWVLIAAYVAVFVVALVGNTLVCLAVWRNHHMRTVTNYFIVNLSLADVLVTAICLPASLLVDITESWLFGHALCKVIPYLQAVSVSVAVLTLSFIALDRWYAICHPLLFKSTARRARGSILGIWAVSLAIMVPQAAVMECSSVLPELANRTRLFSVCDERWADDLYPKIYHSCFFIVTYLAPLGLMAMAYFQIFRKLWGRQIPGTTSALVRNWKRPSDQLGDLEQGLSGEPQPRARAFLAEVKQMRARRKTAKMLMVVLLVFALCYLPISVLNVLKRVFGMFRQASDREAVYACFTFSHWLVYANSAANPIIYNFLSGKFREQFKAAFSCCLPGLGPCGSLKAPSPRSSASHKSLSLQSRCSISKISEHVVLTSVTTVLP
Experiment: Orexin receptor cell-based functional assay: [Ca2+]i by FLIPR in CHO-OX1 cells, antagonism of EC90 of OXA
Conditions: Table 2A, bioactivity with respect to OX1; CHO-OX1 cells, FLIPR; read-out: OX1
quantity measured: pIC50
Numbers only, as −log10 of the molar value.

What value of pIC50 on OX1 (Homo sapiens, UniProt O43613) does Cc1ccc(-n2nccn2)c(C(=O)N2CCC[C@@H](C)[C@H]2CNc2nnc(C(F)(F)F)s2)c1 have? 7.21

Further cases:
State its pIC50 on OX1 (Homo sapiens, UniProt O43613): Cc1ccc(-n2nccn2)c(C(=O)N2CCC[C@@H](C)[C@H]2CNc2ncc(C#N)cc2F)n1 7.00
